All values here come from PubChem BioAssay (Tox21).

# procedureText: qHTS assay to identify small molecule agonists of the hypoxia (HIF-1) signaling pathway - cell viability counter screen (AID 1224844); also: nearly all actives have a fitted effect of over 50% in size
# particulars: HRE-bla ME-180 viability, CellTiter-Glo luminescence, 17 h; series mostly up to 76.8 µM
# Excerpt: National Center for Advancing Translational Sciences [NCATS] NIH Chemical Genomics Center [NCGC] U.S. Environmental Protection Agency [EPA] National Institutes of Environmental Health Sciences [NIEHS] National Toxicology Program [NTP] U.S. Food and Drug Administration [FDA] Hypoxia-inducible factor-1 (HIF-1) is the major hypoxia-regulated transcription factor that controls cellular responses to low oxygen concentration. […]
Records with an inconclusive call do not appear. Activity calls are given as the source filed them. Calls follow the shape of the full dose curve.
Bench note: report the call from 1.0 (active), 0.0 (inactive)

Per the assay record, what outcome was assigned to COc1ccc(COC(C)=O)cc1 ?
0.0

Entry CCCCCC(=O)O[C@]1(C(C)=O)CC[C@H]2[C@@H]3CCC4=CC(=O)CC[C@]4(C)[C@H]3CC[C@@]21C : call = ?
1.0

Check the results log: what was the call for CCN1CCCC1CNC(=O)c1cc(S(=O)(=O)CC)c(N)cc1OC (stereo unspecified) ?
0.0

Hi team, can someone confirm the assay call for Cc1cc(C(C)(C)C)c(O)c(C(C)(C)C)c1 ?
0.0

What call does the record list for NC(=Nc1ccccc1)Nc1ccccc1 ?
0.0

Dear colleague, could you share the recorded outcome for CCCCC/C=C/CC1CC(=O)OC1=O (stereo unspecified) when you have a moment?
0.0
